This collection of values is drawn from ChEMBL document CHEMBL3784972.

test: Oral bioavailability in rat at 10 mg/kg; assay type: ADME, organism-based; details: in vivo
reported-metric: bioavailability (%)
Give a bare numeral; the unit % is implied.

Exercise: Could you share which bioavailability value was measured for "CCN/C(=N\S(=O)(=O)c1ccc(N)cc1)N1CC2(C=N1)CCCC2" ?
Solution: 18

---

Answer each item with its documented Ki.
target: 5-hydroxytryptamine receptor 6 (Homo sapiens, UniProt P50406)
Sequence (P50406 whole entry): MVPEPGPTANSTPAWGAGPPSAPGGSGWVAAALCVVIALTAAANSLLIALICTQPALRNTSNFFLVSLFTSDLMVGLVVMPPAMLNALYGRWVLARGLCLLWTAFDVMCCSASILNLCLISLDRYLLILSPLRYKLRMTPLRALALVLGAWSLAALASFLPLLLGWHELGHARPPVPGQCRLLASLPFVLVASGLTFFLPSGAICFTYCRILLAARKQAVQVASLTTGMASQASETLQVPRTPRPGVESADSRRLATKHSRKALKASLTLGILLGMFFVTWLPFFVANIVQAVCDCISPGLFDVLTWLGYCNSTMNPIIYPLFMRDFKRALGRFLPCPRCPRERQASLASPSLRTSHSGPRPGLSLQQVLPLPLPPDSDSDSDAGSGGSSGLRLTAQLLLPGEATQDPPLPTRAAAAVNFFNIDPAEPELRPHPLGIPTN
Number in µM, nothing else.

Exercise: If you can, please state the reported Ki value of "CCN/C(=N\S(=O)(=O)c1cccc(N)c1)N1CC2(C=N1)CCCC2" .
Solution: 0.0972

Exercise: Query (compound): CCN/C(=N\S(=O)(=O)c1cccc(Cl)c1)N1N=CCC1c1ccc(O)cc1 (centres undefined) ; field requested: Ki
Solution: 0.251

Exercise: Need Ki, item "CCN/C(=N\S(=O)(=O)c1ccc2c(c1)CCN2)N1CC2(C=N1)CCCC2"
Solution: 0.025

Exercise: Look up Ki: "CCN/C(=N\S(=O)(=O)c1ccc(O)c(Cl)c1)N1CC2(C=N1)CCCC2"
Solution: 0.0146

---

test system: MDR; assay: in vitro; conditions: pig, LLC-PK1
Description: Permeability across pig LLC-PK1 cells expressing MDR assessed as ratio of bottom to top transport over top to bottom transport at 1 ug/ml after 3 hrs by LC/MS analysis
reported-metric: efflux ratio at 3 h, 1 ug/ml
Respond with the number and no other words.

Exercise: Quick check: efflux ratio at 3 h, 1 ug/ml of CCN/C(=N\S(=O)(=O)c1ccc(N(C)C)cc1)N1CC(CC)C=N1 (stereo not given) ?
Solution: 1.4

Exercise: Recorded efflux ratio at 3 h, 1 ug/ml for CCN/C(=N\S(=O)(=O)c1ccc(N)cc1)N1CC(CC)C=N1 (stereo not given) , please?
Solution: 2.4

Exercise: # query: efflux ratio at 3 h, 1 ug/ml of entry "CCN/C(=N\S(=O)(=O)c1ccc(OC)cc1)N1CC2(C=N1)CCCC2"
Solution: 1.2

Exercise: Query: efflux ratio at 3 h, 1 ug/ml; subject: CCN/C(=N\S(=O)(=O)c1cccc(Cl)c1)N1N=CCC1c1ccc(O)cc1 (stereo not given)
Solution: 4.9

Exercise: If you can, please state the reported efflux ratio at 3 h, 1 ug/ml value of "CCN/C(=N\S(=O)(=O)c1ccc(O)cc1)N1CC2(C=N1)CCCC2" .
Solution: 5.9

---

assay: Ratio of drug uptake in rat CNS to plasma at 10 mg/kg, po; assay type: ADME, organism-based
reported-metric: Kp
Returns: the value as a bare number; no unit string appended.

Exercise: Field request: Kp | item: "CCN/C(=N\S(=O)(=O)c1ccc(N)cc1)N1CC2(C=N1)CCCC2"
Solution: 0.1

---

test: in vitro; details: human, hepatocytes
hepatocyte CLint strictly less than 10 µL/min/1e6 cells = 1. Otherwise 0.

Exercise: Problem: For the molecule CCN/C(=N\S(=O)(=O)c1ccccc1)N1CC(CC)C=N1 (stereo not given) , is hepatocyte CLint under 10 µL/min/1e6 cells?
Solution: 0

Exercise: Please state whether hepatocyte CLint is below 10 µL/min/1e6 cells for "CCN/C(=N\S(=O)(=O)c1cc(O)cc(Cl)c1)N1CC2(C=N1)CCCC2"
Solution: 0

Exercise: Regarding "CCN/C(=N\S(=O)(=O)c1ccc2[nH]ccc2c1)N1CC2(C=N1)CCNCC2" , kindly confirm whether its hepatocyte CLint is beneath 10 µL/min/1e6 cells.
Solution: 1

Exercise: Strictly below 10 µL/min/1e6 cells in hepatocyte CLint? "CCN/C(=N\S(=O)(=O)c1ccc2[nH]ncc2c1)N1CC2(C=N1)CCCC2"
Solution: 0

Exercise: API: query returns whether the molecule falls strictly under 10 µL/min/1e6 cells in hepatocyte CLint. Query: "CCN/C(=N\S(=O)(=O)c1ccc(O)cc1)N1CC2(C=N1)CCCC2"
Solution: 0

Exercise: hepatocyte CLint strictly < 10 µL/min/1e6 cells for this molecule? "CCN/C(=N\S(=O)(=O)c1ccc(O)c(Cl)c1)N1CC2(C=N1)CCCC2"
Solution: 0

Exercise: Take the molecule "CCN/C(=N\S(=O)(=O)c1ccc2[nH]ccc2c1)N1CC2(C=N1)CCCC2" and say whether its hepatocyte CLint is less than 10 µL/min/1e6 cells.
Solution: 0

Exercise: # check: hepatocyte CLint < 10 µL/min/1e6 cells for "CCN/C(=N\S(=O)(=O)c1ccc(N)c(Cl)c1)N1CC2(C=N1)CCCC2"
Solution: 0

Exercise: Lab note: confirm whether the reported hepatocyte CLint for this molecule is below 10 µL/min/1e6 cells, equality not counting. molecule: "CCN/C(=N\S(=O)(=O)c1ccc(N)cc1)N1CC2(C=N1)CCCCC2"
Solution: 0

Exercise: Below 10 µL/min/1e6 cells on hepatocyte CLint? Entry "CCN/C(=N\S(=O)(=O)c1ccc(N)cc1)N1CC(C)(C)C=N1"
Solution: 1

Exercise: Please let me know if CCN/C(=N\S(=O)(=O)c1ccc(N)cc1)N1CC(CC)C=N1 (stereo not given) shows hepatocyte CLint below 10 µL/min/1e6 cells.
Solution: 1

Exercise: Given "CCN/C(=N\S(=O)(=O)c1ccc(N)cc1)N1CC2(C=N1)CCCC2" , is recorded hepatocyte CLint strictly lower than 10 µL/min/1e6 cells?
Solution: 1

Exercise: # strict comparison: is reported hepatocyte CLint < 10 µL/min/1e6 cells? input = "CCN/C(=N\S(=O)(=O)c1ccc2[nH]c(C(F)(F)F)cc2c1)N1CC(C)(C)C=N1"
Solution: 0

Exercise: Find out if reported hepatocyte CLint for "CCN/C(=N\S(=O)(=O)c1ccc(N)cc1)N1CC2(C=N1)CCNCC2" is less than 10 µL/min/1e6 cells
Solution: 1

---

molecular target: 5-hydroxytryptamine receptor 6 (Homo sapiens, UniProt P50406); test: Antagonist activity at human recombinant 5-HT6 receptor expressed in CHO cells assessed as inhibition of agonist induced intracellular calcium levels by aequorin assay; type: functional, cell-based; conditions: read-out: pA2 (converted)
reported-metric: log10(Kb) (log10 of the value in nM)
// do not treat as linear: log10 of Kb, unit nM

Exercise: So what log10(Kb) did CCN/C(=N\S(=O)(=O)c1ccc(N)c(Cl)c1)N1CC(CC)C=N1 (stereo not drawn) get with 5-hydroxytryptamine receptor 6 (Homo sapiens, UniProt P50406)?
Solution: -0.10

Exercise: Form: Entry = CCN/C(=N\S(=O)(=O)c1cccc(Cl)c1)N1N=CCC1c1ccc(N)cc1 (stereo not drawn) | System = 5-hydroxytryptamine receptor 6 (Homo sapiens, UniProt P50406) | log10(Kb) = ____
Solution: 3.20

Exercise: Kindly state the measured log10(Kb) obtained for "CCN/C(=N\S(=O)(=O)c1ccc2c(c1)CCN2)N1CC2(C=N1)CCCC2" with 5-hydroxytryptamine receptor 6 (Homo sapiens, UniProt P50406).
Solution: 0.70

Exercise: Lookup: log10(Kb) / 5-hydroxytryptamine receptor 6 (Homo sapiens, UniProt P50406) / "CCN/C(=N\S(=O)(=O)c1ccc2[nH]ncc2c1)N1CC2(C=N1)CCCC2"
Solution: 1.10

Exercise: Any idea what log10(Kb) came out for "CCN/C(=N\S(=O)(=O)c1ccc(O)cc1)N1CC2(C=N1)CCCC2" on 5-hydroxytryptamine receptor 6 (Homo sapiens, UniProt P50406)?
Solution: 0.50

Exercise: What log10(Kb) appears in the records for this compound with 5-hydroxytryptamine receptor 6 (Homo sapiens, UniProt P50406)? "CCN/C(=N\S(=O)(=O)c1ccc(O)c(Cl)c1)N1CC2(C=N1)CCCC2"
Solution: 1.00

Exercise: What measured log10(Kb) is associated with "CCN/C(=N\S(=O)(=O)c1cccc(OC)c1)N1CC2(C=N1)CCCC2" on 5-hydroxytryptamine receptor 6 (Homo sapiens, UniProt P50406)?
Solution: 2.10

Exercise: Query for 5-hydroxytryptamine receptor 6 (Homo sapiens, UniProt P50406): what log10(Kb) does the record show for "CCN/C(=N\S(=O)(=O)c1cc(O)cc(Cl)c1)N1CC2(C=N1)CCCC2" ?
Solution: -1.30

Exercise: Please provide the recorded log10(Kb) for CCN/C(=N\S(=O)(=O)c1ccc2cc[nH]c2c1)N1CC(CC)C=N1 (stereo not drawn) , tested on 5-hydroxytryptamine receptor 6 (Homo sapiens, UniProt P50406).
Solution: 1.90

Exercise: Provide the documented log10(Kb) with 5-hydroxytryptamine receptor 6 (Homo sapiens, UniProt P50406) as the system for "CCN/C(=N\S(=O)(=O)c1cc(Cl)cc(OC)c1)N1CC2(C=N1)CCCC2"
Solution: 1.80

Exercise: Give 5-hydroxytryptamine receptor 6 (Homo sapiens, UniProt P50406) log10(Kb) for CCN/C(=N\S(=O)(=O)c1ccc(NC(C)=O)c(Cl)c1)N1CC(CC)C=N1 (stereo not drawn)
Solution: 1.00

Exercise: Hello, I am looking for reported log10(Kb) with 5-hydroxytryptamine receptor 6 (Homo sapiens, UniProt P50406) for "CCN/C(=N\S(=O)(=O)c1ccc2[nH]ccc2c1)N1CC2(C=N1)CCCC2" . Could you help?
Solution: -0.50

Exercise: Recorded log10(Kb) for CCN/C(=N\S(=O)(=O)c1ccc(N)cc1)N1CC(CC)C=N1 (stereo not drawn) with 5-hydroxytryptamine receptor 6 (Homo sapiens, UniProt P50406), please?
Solution: 0.60

Exercise: Find log10(Kb) (5-hydroxytryptamine receptor 6 (Homo sapiens, UniProt P50406)) for the entry "CCN/C(=N\S(=O)(=O)c1ccc(N)cc1)N1CC2(C=N1)CCCCC2"
Solution: 0.70

Exercise: API: value(readout=log10(Kb), system=5-hydroxytryptamine receptor 6 (Homo sapiens, UniProt P50406)) for record "CCN/C(=N\S(=O)(=O)c1cccc(O)c1)N1CC2(C=N1)CCCC2"
Solution: 0.90

Exercise: Which measured log10(Kb) belongs to "CCN/C(=N\S(=O)(=O)c1cccc(N)c1)N1CC2(C=N1)CCCC2" , tested on 5-hydroxytryptamine receptor 6 (Homo sapiens, UniProt P50406)?
Solution: 2.00

Exercise: Request: log10(Kb), test system 5-hydroxytryptamine receptor 6 (Homo sapiens, UniProt P50406), entry "CCN/C(=N\S(=O)(=O)c1ccc(N)cc1)N1CC2(C=N1)CCCC2"
Solution: 0.60
